Experiment: Saturation solubility in selected solvents/vehicles
Assay type: physicochemical
metric: solubility in Tocrisolve 100

Look over these answered cases.
{"columns": ["compound", "solubility in Tocrisolve 100"],
 "data": [
  ["CCCCCCC(C)(C)c1cc(OC)c(C2=C[C@H]3CC[C@]2(CO)C3(C)C)c(OC)c1 [HU910, reference compound]", "good solvent"],
  ["Cc1nc([C@](C)(CC2CC2)NC(=O)c2cc(OCC(F)(F)F)c(C3CC3)cn2)no1", "good solvent"],
  ["CCCCCCC(C)(C)c1cc(OC)c([C@H]2C=C(CO)[C@H]3C[C@@H]2C3(C)C)c(OC)c1 [HU308, reference compound]", "considerably lower"],
  ["CNC(=O)[C@@H](NC(=O)c1cc(OCC2(C)COC2)c(C2CC2)cn1)C(C)(C)C", "good solvent"]
]}

Here is another compound to look at.
Query: Any idea what its solubility in Tocrisolve 100 is? The compound is CC(C)(C)c1nc(N2CC[C@H](O)C2)c2nnn(Cc3nnnn3C3CC3)c2n1
Response: considerably lower

----------
Would you kindly list remaining at 2 h for each of these compounds?
Experiment: Chemical stability (aqueous stability assay ASTA)
Format: physicochemical
Conditions: aqueous buffer; pH 6.5, 2 h, 37 °C; read-out: Chemical Stability in Aqueous Buffer at pH 6.5 (% remaining after 2 h at 37 °C)
Write down the numeric answer in % and omit the unit.

Query: Any idea what its remaining at 2 h is? The compound is Cc1nc([C@](C)(CC2CC2)NC(=O)c2cc(OCC(F)(F)F)c(C3CC3)cn2)no1 [RO6871085]
Response: 97

Query: Any idea what its remaining at 2 h is? The compound is CCCCCCC(C)(C)c1cc(OC)c(C2=C[C@H]3CC[C@]2(CO)C3(C)C)c(OC)c1 [HU910, reference compound]
Response: 91

Query: Any idea what its remaining at 2 h is? The compound is CNC(=O)[C@@H](NC(=O)c1cc(OCC2(C)COC2)c(C2CC2)cn1)C(C)(C)C [RO6851228]
Response: 99

Query: Any idea what its remaining at 2 h is? The compound is CC(C)(C)c1nc(N2CC[C@H](O)C2)c2nnn(Cc3nnnn3C3CC3)c2n1 [RO6871304]
Response: 100

----------
Molecular target: mouse CB2R (Mus musculus)
Sequence (P47936 whole entry): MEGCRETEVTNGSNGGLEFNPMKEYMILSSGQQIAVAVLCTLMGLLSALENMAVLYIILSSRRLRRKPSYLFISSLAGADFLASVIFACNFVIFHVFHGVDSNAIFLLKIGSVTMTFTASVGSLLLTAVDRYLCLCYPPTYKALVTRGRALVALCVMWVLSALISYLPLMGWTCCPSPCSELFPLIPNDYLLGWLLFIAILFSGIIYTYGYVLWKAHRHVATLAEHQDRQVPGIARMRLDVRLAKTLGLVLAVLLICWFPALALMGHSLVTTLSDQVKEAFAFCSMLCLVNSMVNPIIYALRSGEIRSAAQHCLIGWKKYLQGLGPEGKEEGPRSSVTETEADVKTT
Assay: cell-based
Type: cell-based
Set-up: bgal (beta-galactosidase fragment of the PathHunter system, named only in the cell line's name); host or cells: CHO-K1 (CHOK1mCB2_bgal)
metric: pEC50
Units for pEC50: none; it is -log10 of a concentration expressed in mol/L.

Query: Any idea what its pEC50 is? The molecule is CCCCCCC(C)(C)c1cc(OC)c([C@H]2C=C(CO)[C@H]3C[C@@H]2C3(C)C)c(OC)c1 [HU308, reference compound]
Response: 6.23

----------
Test: Plasma protein binding (equilibrium dialysis), mouse plasma
Format: in vitro ADME
Details: C57, pH 7.4, read-out: Plasma Protein Binding: FREE Fraction mouse
metric: fraction unbound at 5 h, 1000 nM
Could you respond with only the numeric value?

Query: Any idea what its fraction unbound at 5 h, 1000 nM is? The molecule is CC(C)(C)c1nc(N2CC[C@H](O)C2)c2nnn(Cc3nnnn3C3CC3)c2n1 [RO6871304]
Response: 0.031
